- system.name: alpha-chymotrypsin (Bos taurus)
- method: Inhibition of bovine alpha-chymotrypsin assessed as residual activity at 200 uM relative to control
- assay.setup: cattle, read-out: Activity
measured.metric: activity at 200 µM

Name the recorded activity at 200 µM of the compound listed here: O=C(NC(CCc1ccc([N+](=O)[O-])cc1)P(=O)(Oc1ccccc1)Oc1ccccc1)OCc1ccccc1 (stereo not drawn)
≥ 100%

Name the recorded activity at 200 µM of the compound listed here: CN(C)c1ccc(C(NC(=O)OCc2ccccc2)P(=O)(Oc2ccccc2)Oc2ccccc2)cc1 (stereo not drawn)
≥ 100%

Name the recorded activity at 200 µM of the compound listed here: COc1cccc(C(NC(=O)OCc2ccccc2)P(=O)(Oc2ccccc2)Oc2ccccc2)n1 (stereo not drawn)
≥ 100%

Name the recorded activity at 200 µM of the compound listed here: O=C(NC(c1ccc(NC(=O)C(F)(F)F)cc1)P(=O)(Oc1ccccc1)Oc1ccccc1)OCc1ccc2c(c1)OCO2 (stereo not drawn)
46%

Name the recorded activity at 200 µM of the compound listed here: O=C(NC(Cc1ccc(C(F)(F)F)cc1)P(=O)(Oc1ccccc1)Oc1ccccc1)OCc1ccccc1 (stereo not drawn)
93.9%

Name the recorded activity at 200 µM of the compound listed here: COC(=O)NC(c1ccc(C(=N)N)cc1)P(=O)(Oc1ccccc1)Oc1ccccc1 (stereo not drawn)
≥ 100%

Name the recorded activity at 200 µM of the compound listed here: C[C@H](NC(=O)[C@H](CO)NC(=O)c1cccs1)C(=O)NC(Cc1ccc(NC(=N)N)cc1)P(=O)(Oc1ccccc1)Oc1ccccc1 (stereo partly drawn)
≥ 100%

Name the recorded activity at 200 µM of the compound listed here: O=C(NC(c1c[nH]c2ccc(Cl)cc12)P(=O)(Oc1ccccc1)Oc1ccccc1)OCc1ccccc1 (stereo not drawn)
≥ 100%

Name the recorded activity at 200 µM of the compound listed here: Nc1ccc(C(NC(=O)OCc2ccccc2)P(=O)(Oc2ccccc2)Oc2ccccc2)cc1 (stereo not drawn)
≥ 100%

Name the recorded activity at 200 µM of the compound listed here: Nc1cccc(C(NC(=O)OCc2ccccc2)P(=O)(Oc2ccccc2)Oc2ccccc2)c1 (stereo not drawn)
17.9%

Name the recorded activity at 200 µM of the compound listed here: N=C(N)N1CC(C(NC(=O)OCc2ccccc2)P(=O)(Oc2ccccc2)Oc2ccccc2)C1 (stereo not drawn)
≥ 100%

Name the recorded activity at 200 µM of the compound listed here: O=C(NC(c1ccc(N2CCNCC2)cc1)P(=O)(Oc1ccccc1)Oc1ccccc1)OCc1ccccc1 (stereo not drawn)
≥ 100%

Name the recorded activity at 200 µM of the compound listed here: N=C(N)c1ccc2cc(C(NC(=O)OCc3ccccc3)P(=O)(Oc3ccccc3)Oc3ccccc3)ccc2c1 (stereo not drawn)
≥ 100%

The reported measurements were obtained from ChEMBL document CHEMBL4371075.
